# SUBJECT OF TEST: Coagulation factor XI (Homo sapiens)
# Sequence (P03951 19-387 limits assumed): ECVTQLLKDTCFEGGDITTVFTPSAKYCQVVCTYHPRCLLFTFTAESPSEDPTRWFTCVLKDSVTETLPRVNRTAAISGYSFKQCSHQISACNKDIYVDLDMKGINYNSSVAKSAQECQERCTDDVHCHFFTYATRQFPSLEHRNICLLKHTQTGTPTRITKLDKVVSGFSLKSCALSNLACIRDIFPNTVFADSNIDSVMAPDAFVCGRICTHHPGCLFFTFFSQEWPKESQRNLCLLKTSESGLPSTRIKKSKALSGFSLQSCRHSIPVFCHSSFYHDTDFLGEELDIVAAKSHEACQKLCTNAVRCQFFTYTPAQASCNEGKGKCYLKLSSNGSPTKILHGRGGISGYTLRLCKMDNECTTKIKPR
# Sequence (P03951 388-625 limits assumed): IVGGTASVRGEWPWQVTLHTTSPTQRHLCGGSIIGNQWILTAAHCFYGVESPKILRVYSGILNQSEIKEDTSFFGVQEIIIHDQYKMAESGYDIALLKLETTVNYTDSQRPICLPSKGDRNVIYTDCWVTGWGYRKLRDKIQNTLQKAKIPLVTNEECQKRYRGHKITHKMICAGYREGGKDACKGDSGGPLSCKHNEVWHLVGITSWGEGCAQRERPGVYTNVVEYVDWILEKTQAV

{"columns": ["MOL", "UNITS", "Ki"],
 "data": [
  ["COC(=O)Nc1ccc2c(c1)NC(=O)CCCC[C@H](NC(=O)[C@H]1CC[C@H](CN)CC1)c1nc-2c[nH]1", "nM", 0.3]
]}

* * *

# SUBJECT OF TEST: Coagulation factor XI (Homo sapiens)
pKd: −log10 of the molar value.

{"columns": ["MOL", "pKd"],
 "data": [
  ["CNC(=O)[C@H](Cc1ccccc1)NC(=O)c1ccc2[nH]c(=O)cc(O)c2c1", 2.85]
]}
